// data source = ChEMBL document CHEMBL1833956

- target_or_test_system: CYP3A4 (Homo sapiens)
- Sequence (P08684 whole entry): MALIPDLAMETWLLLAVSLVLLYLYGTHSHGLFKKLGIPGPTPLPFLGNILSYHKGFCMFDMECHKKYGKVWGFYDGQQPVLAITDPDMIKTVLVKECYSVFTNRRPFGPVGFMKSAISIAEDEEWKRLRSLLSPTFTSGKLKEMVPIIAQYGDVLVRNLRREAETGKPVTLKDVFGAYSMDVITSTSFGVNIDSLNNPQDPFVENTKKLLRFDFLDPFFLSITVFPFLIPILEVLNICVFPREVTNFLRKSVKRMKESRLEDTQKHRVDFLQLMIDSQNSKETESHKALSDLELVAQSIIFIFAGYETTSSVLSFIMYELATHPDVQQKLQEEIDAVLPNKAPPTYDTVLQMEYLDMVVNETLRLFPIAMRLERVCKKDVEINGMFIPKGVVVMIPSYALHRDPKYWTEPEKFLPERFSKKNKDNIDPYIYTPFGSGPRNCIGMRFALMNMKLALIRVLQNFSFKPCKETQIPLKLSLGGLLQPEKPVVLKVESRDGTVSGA
- assay_method_text: Inhibition of CYP3A4 in human liver microsomes using NADPH at 10 uM by LC-MS/MS analysis relative to control
- Type: ADME, Microsome
result_type: inhibition at 10 µM (%)
State the answer as a number, implicitly in %.

INSERT INTO assay_data (chemical_string, result_type, units_label, measured_value) VALUES
  ('O=S(=O)(c1ccc2ccccc2c1)N1CCN(c2ncc(C(F)(F)F)cc2Cl)CC1', 'inhibition at 10 µM', '%', 13),
  ('O=S(=O)(Nc1cccc(CCc2ccccn2)c1)c1cc(Cl)ccc1Cl', 'inhibition at 10 µM', '%', 82),
  ('N#C/C(=C\c1ccc2c(c1)CCO2)S(=O)(=O)c1ccc(Cl)cc1Cl', 'inhibition at 10 µM', '%', 26),
  ('CN(Cc1ccccc1)S(=O)(=O)c1ccc(Oc2cccc(Cl)c2C#N)cc1', 'inhibition at 10 µM', '%', 17),
  ('Fc1cccc(Cl)c1CSc1nnc(-c2ccco2)n1-c1ccc(OCc2ccccc2)cc1', 'inhibition at 10 µM', '%', 73),
  ('O=S(=O)(c1ccc2ccccc2c1)N1CCCN(Cc2c(F)cccc2Cl)CC1', 'inhibition at 10 µM', '%', 26),
  ('O=S(=O)(c1ccc2ccccc2c1)N1CC=C(c2ccccc2)CC1', 'inhibition at 10 µM', '%', 14);

Give the measured inhibition at 10 µM of O=C(CSc1nnc(-c2ccccc2)c(-c2ccccc2)n1)N1CCc2ccccc21 .
36
